Listing of recorded inhibition by entry.
# System under test: Acyl-protein thioesterase 1 (Mus musculus)
# Protocol text: serine hydrolase off-target inhibition in mouse brain, late-stage follow-up, selectivity assay for DAGLb inhibitor project, biochemical, gel-based competitive ABPP, mouse brain membrane, set 1 (AID 602311)
# Measurement context: gel-based competitive ABPP fluorescence, LYPLA1, at 10 µM, hits give high values
The response must be a number in % with no trailing unit.

[[record]]
compound = "O=C(N1CCCCC1Cc1ccccc1)n1cc(-c2ccc(OC(F)(F)F)cc2)nn1 (configuration not stated)"
system_under_test = "Acyl-protein thioesterase 1 (Mus musculus)"
measure = "inhibition"
result_value = 0

[[record]]
compound = "O=C(N1CCCCC1Cc1ccccc1)n1cc(-c2ccc(-c3ccc4c(c3)OCO4)cc2)nn1 (configuration not stated)"
system_under_test = "Acyl-protein thioesterase 1 (Mus musculus)"
measure = "inhibition"
result_value = 0


Reported inhibition, compound O=C(N1CCCCC1Cc1ccccc1)n1cc(-c2ccc(-c3ccc(OC(F)(F)F)cc3)cc2)nn1 (configuration not stated) : ____
0

Reported inhibition, compound Cc1ccccc1-c1ccc(-c2cn(C(=O)N3CCCCC3Cc3ccccc3)nn2)cc1 (configuration not stated) : ____
0

Reported inhibition, compound O=C(N1CCCCC1Cc1ccccc1)n1cc(-c2ccc(-c3cccc(CO)c3)cc2)nn1 (configuration not stated) : ____
0

====

Listing of recorded inhibition by entry.
# System: FAAH
# Protocol text: serine hydrolase off-target inhibition in mouse brain, late-stage follow-up, selectivity assay for DAGLb inhibitor project, biochemical, gel-based competitive ABPP, mouse brain membrane, set 1 (AID 602311)
# Measurement context: gel-based competitive ABPP fluorescence, at 10 µM, hits give high values
Active and inactive are the calls of the source. How the calls were made is not given here.

Consider the reported inhibition for these compounds:
[[record]]
compound = "O=C(N1CCCCC1Cc1ccccc1)n1cc(-c2ccc(-c3ccccc3)cc2)nn1 (configuration not stated)"
measure = "inhibition"
result_value = "0% (inactive)"

[[record]]
compound = "O=C(N1CCCCC1Cc1ccccc1)n1cc(-c2cc(F)cc(F)c2)nn1 (configuration not stated)"
measure = "inhibition"
result_value = "98%"

[[record]]
compound = "O=C(N1CCCCC1Cc1ccccc1)n1cc(-c2ccc(-c3ccc(C(F)(F)F)cc3)cc2)nn1 (configuration not stated)"
measure = "inhibition"
result_value = "55%"

[[record]]
compound = "O=C(c1ccc(-c2cn(C(=O)N3CCCCC3Cc3ccccc3)nn2)cc1)N1CCCCC1 (configuration not stated)"
measure = "inhibition"
result_value = "55%"

[[record]]
compound = "Cc1ccccc1-c1ccc(-c2cn(C(=O)N3CCCCC3Cc3ccccc3)nn2)cc1 (configuration not stated)"
measure = "inhibition"
result_value = "30% (inactive)"

[[record]]
compound = "O=C(N1CCCCC1Cc1ccccc1)n1cc(-c2ccc(-c3ccccc3CO)cc2)nn1 (configuration not stated)"
measure = "inhibition"
result_value = "55%"

[[record]]
compound = "O=C(N1CCCCC1Cc1ccccc1)n1cc(-c2ccc(-c3cccc(CO)c3)cc2)nn1 (configuration not stated)"
measure = "inhibition"
result_value = "40% (inactive)"

[[record]]
compound = "O=C(N1CCCCC1Cc1ccccc1)n1cc(-c2ccc(-c3cccc(C(F)(F)F)c3)cc2)nn1 (configuration not stated)"
measure = "inhibition"
result_value = "65%"

[[record]]
compound = "O=C(N1CCCCC1Cc1ccccc1)n1cc(-c2ccc(OC(F)(F)F)cc2)nn1 (configuration not stated)"
measure = "inhibition"
result_value = "65%"

[[record]]
compound = "O=C(N1CCCCC1Cc1ccccc1)n1cc(-c2cccc(-c3ccccc3)c2)nn1 (configuration not stated)"
measure = "inhibition"
result_value = "65%"


Reported inhibition, compound O=C(N1CCCCC1Cc1ccccc1)n1cc(-c2ccc(-c3ccc(OC(F)(F)F)cc3)cc2)nn1 (configuration not stated) : ____
45% (inactive)

Reported inhibition, compound O=C(N1CCCCC1Cc1ccccc1)n1cc(-c2ccc(-c3ccccc3C(F)(F)F)cc2)nn1 (configuration not stated) : ____
40% (inactive)

Reported inhibition, compound O=C(N1CCCCC1Cc1ccccc1)n1ncc(-c2ccc(OC(F)(F)F)cc2)n1 (configuration not stated) : ____
98%

Reported inhibition, compound O=C(N1CCCCC1Cc1ccccc1)n1cc(-c2ccc(-c3ccoc3)cc2)nn1 (configuration not stated) : ____
40% (inactive)

Reported inhibition, compound O=C(N1CCCCC1Cc1ccccc1)n1cc(-c2ccccc2-c2ccccc2)nn1 (configuration not stated) : ____
98%

Reported inhibition, compound "CC(C)(C)OC(=O)NCCCCCN(CCc1ccccc1)C(=O)n1cc(-c2ccc(OC(F)(F)F)cc2)nn1" : ____
0% (inactive)

Reported inhibition, compound O=C(N1CCCCC1Cc1ccccc1)n1cc(-c2ccc(-c3ccc4c(c3)OCO4)cc2)nn1 (configuration not stated) : ____
50%

====

# Tested on: APEH
# Protocol text: serine hydrolase off-target inhibition in mouse brain, late-stage follow-up, selectivity assay for DAGLb inhibitor project, biochemical, gel-based competitive ABPP, mouse brain membrane, set 1 (AID 602311)
# Measurement context: gel-based competitive ABPP fluorescence, at 10 µM
Activity calls are given as the source filed them. The rule behind the calls is not given here.
Can you answer with just one of these options? y = active, n = inactive

What outcome does the record of this test show for O=C(N1CCCCC1Cc1ccccc1)n1cc(-c2ccc(-c3cccc(C(F)(F)F)c3)cc2)nn1 (configuration not stated) ?
n

====

# Test system: KIAA1363
# Protocol text: serine hydrolase off-target inhibition in mouse brain, late-stage follow-up, selectivity assay for DAGLb inhibitor project, biochemical, gel-based competitive ABPP, mouse brain membrane, set 1 (AID 602311)
# Measurement context: gel-based competitive ABPP fluorescence, at 10 µM
The source made the active and inactive calls. How the calls were made is not given here.
Can you answer with just one of these options? active, inactive

[[record]]
molecule = "O=C(N(CCc1ccccc1)Cc1ccco1)n1cc(-c2ccc(OC(F)(F)F)cc2)nn1"
system_under_test = "KIAA1363"
assigned_label = "active"

[[record]]
molecule = "O=C(N1CCCCC1Cc1ccccc1)n1cc(-c2ccc(-c3cccc(CO)c3)cc2)nn1 (stereo unspecified)"
system_under_test = "KIAA1363"
assigned_label = "inactive"

[[record]]
molecule = "O=C(N1CCCCC1Cc1ccccc1)n1cc(-c2cc(F)cc(F)c2)nn1 (stereo unspecified)"
system_under_test = "KIAA1363"
assigned_label = "active"

[[record]]
molecule = "CC(C)(C)OC(=O)NCCCCCN(CCc1ccccc1)C(=O)n1cc(-c2ccc(OC(F)(F)F)cc2)nn1"
system_under_test = "KIAA1363"
assigned_label = "inactive"

[[record]]
molecule = "O=C(N1CCCCC1Cc1ccccc1)n1cc(-c2ccccc2-c2ccccc2)nn1 (stereo unspecified)"
system_under_test = "KIAA1363"
assigned_label = "inactive"

[[record]]
molecule = "O=C(N1CCCCC1Cc1ccccc1)n1cc(-c2ccc(OC(F)(F)F)cc2)nn1 (stereo unspecified)"
system_under_test = "KIAA1363"
assigned_label = "inactive"


What outcome does the record of this test show for O=C(N1CCCCC1Cc1ccccc1)n1cc(-c2ccc(-c3ccc(C(F)(F)F)cc3)cc2)nn1 (stereo unspecified) ?
active

What outcome does the record of this test show for Cc1ccccc1-c1ccc(-c2cn(C(=O)N3CCCCC3Cc3ccccc3)nn2)cc1 (stereo unspecified) ?
inactive

What outcome does the record of this test show for O=C(N1CCCCC1Cc1ccccc1)n1cc(-c2ccc(-c3ccccc3CO)cc2)nn1 (stereo unspecified) ?
inactive

What outcome does the record of this test show for O=C(N1CCCCC1Cc1ccccc1)n1cc(-c2cccc(-c3ccccc3)c2)nn1 (stereo unspecified) ?
inactive

What outcome does the record of this test show for O=C(N1CCCCC1Cc1ccccc1)n1cc(-c2ccc(-c3ccoc3)cc2)nn1 (stereo unspecified) ?
inactive

What outcome does the record of this test show for O=C(N1CCCCC1Cc1ccccc1)n1ncc(-c2ccc(OC(F)(F)F)cc2)n1 (stereo unspecified) ?
active

What outcome does the record of this test show for O=C(N1CCCCC1Cc1ccccc1)n1cc(-c2ccc(-c3ccccc3Cl)cc2)nn1 (stereo unspecified) ?
inactive

What outcome does the record of this test show for O=C(N1CCCCC1Cc1ccccc1)n1cc(-c2ccc(-c3ccc(OC(F)(F)F)cc3)cc2)nn1 (stereo unspecified) ?
active

What outcome does the record of this test show for "CC(C)CN(CCc1ccccc1)C(=O)n1cc(-c2ccc(OC(F)(F)F)cc2)nn1" ?
inactive

What outcome does the record of this test show for O=C(N1CCCCC1c1ccccc1)n1cc(C(O)(c2ccccc2)c2ccccc2)nn1 (stereo unspecified) ?
active

What outcome does the record of this test show for O=C(N1CCCCC1Cc1ccccc1)n1cc(-c2ccc(-c3cccc(C(F)(F)F)c3)cc2)nn1 (stereo unspecified) ?
inactive

What outcome does the record of this test show for COc1ccccc1-c1ccc(-c2cn(C(=O)N3CCCCC3Cc3ccccc3)nn2)cc1 (stereo unspecified) ?
inactive

What outcome does the record of this test show for O=C(N1CCCCC1Cc1ccccc1)n1cc(-c2ccc(-c3ccccc3OC(F)(F)F)cc2)nn1 (stereo unspecified) ?
inactive

What outcome does the record of this test show for O=C(N1CCCCC1Cc1ccccc1)n1cc(-c2ccc(-c3ccc4c(c3)OCO4)cc2)nn1 (stereo unspecified) ?
inactive

What outcome does the record of this test show for O=C(c1ccc(-c2cn(C(=O)N3CCCCC3Cc3ccccc3)nn2)cc1)N1CCCCC1 (stereo unspecified) ?
inactive
